Values were extracted from patent US7138421B2.

# experimentalProtocol: Pharmacokinetics in rats after intravenous and peroral administration
# Type: in vivo
# measurementSetup: rat, serum, intravenous, read-out: Distribution Volume Vdss
Consider the following compounds and their measured Vd readings.
propertyName: Vd (L/kg)

INSERT INTO results (molecule, propertyname, reportedvalue) VALUES
  ('CC1(C)C(=O)N(c2ccc(C#N)c(C(F)(F)F)c2)C(=S)N1CCCCCCCCN1CCC[C@H]1CO', 'Vd', 11),
  ('CC1(C)C(=O)N(c2ccc(C#N)c(C(F)(F)F)c2)C(=S)N1CCCCCCCCN1CCCC1', 'Vd', 37);

---

# Tested on: LNCaP cells
# experimentalProtocol: Inhibition of the proliferation of LNCaP cells (crystal violet assay)
# Type: cell-based, human
# measurementSetup: Homo sapiens, LNCaP; 1 μM test substance, compared to cell growth in the presence of 0.1 nmol of R1881; read-out: % Inhibition at 1 μM
Consider the following compounds and their measured inhibition at 1 µM readings.
propertyName: inhibition at 1 µM (%)

INSERT INTO measurements (compound, reportedvalue) VALUES
  ('CC1(C)C(=O)N(c2ccc(C#N)c(C(F)(F)F)c2)C(=S)N1CCCCN1CCCC1 [Comparison 1, reference compound]', 20),
  ('CC1(C)C(=O)N(c2ccc(C#N)c(C(F)(F)F)c2)C(=S)N1CCCCCCCN1CC[C@H](C(N)=O)C1', 110),
  ('CC1(C)C(=O)N(c2ccc(C#N)c(C(F)(F)F)c2)C(=S)N1CCCCCCCCN1CC[C@@H](C(N)=O)C1', 93),
  ('CC1CCCN1CCCCCCCN1C(=S)N(c2ccc(C#N)c(C(F)(F)F)c2)C(=O)C1(C)C (centres unmarked)', 92),
  ('COC[C@@H]1CCCN1CCCCCCCCN1C(=S)N(c2ccc(C#N)c(C(F)(F)F)c2)C(=O)C1(C)C', 97),
  ('CC1(C)C(=O)N(c2ccc(C#N)c(C(F)(F)F)c2)C(=S)N1CCCCCCCCN1CC[C@H](O)C1', 101),
  ('CCC(O)(CC)[C@@H]1CCCN1CCCCCCCCN1C(=S)N(c2ccc(C#N)c(C(F)(F)F)c2)C(=O)C1(C)C', 99),
  ('CC(C)(O)[C@@H]1CCCN1CCCCCCCN1C(=S)N(c2ccc(C#N)c(C(F)(F)F)c2)C(=O)C1(C)C', 108),
  ('CC1(C)C(=O)N(c2ccc(C#N)c(C(F)(F)F)c2)C(=S)N1CCCCCCCCCN1CCC[C@H]1CO', 88),
  ('CC1(C)C(=O)N(c2ccc(C#N)c(C(F)(F)F)c2)C(=S)N1CCCCCCCN1CCC[C@@H]1CO', 101),
  ('CC1(C)C(=O)N(c2ccc(C#N)c(C(F)(F)F)c2)C(=S)N1CCCCCCN1CCC[C@@H]1CO', 102);
